Reference source: the supplement of paper PMC9262897

Tested on: E. coli TESEC Alr+ wild-type control
Assay: growth (OD600 after 10 h); higher = more growth (less inhibition)
Details: compound 0.1 mM; raw OD600 reference: median of DMSO wells 0.49, cell-free background 0.052
Where a name gives a salt, the structure may show the parent alone.
Everything with growth lower than 0.5 is 0.0; everything else, including exactly 0.5, is 1.0.

1) CC(O)(P(=O)(O)O)P(=O)(O)O [Etidronic acid, disodium salt]: 1.0
2) Cn1nnc2c(C(N)=O)ncn2c1=O [Temozolomide]: 1.0

Req: Does the reported growth for CCCC(=O)Nc1ccc(OCC(O)CNC(C)C)c(C(C)=O)c1 (configuration not stated) [Acebutolol hydrochloride] fall at or above the 0.5 mark?
Resp: 0.0

Req: Does the reported growth for CC(=O)Nc1ccc(CC(=O)O)cc1 [Actarit] fall at or above the 0.5 mark?
Resp: 1.0

Req: Does the reported growth for CC(C(=O)O)c1cccc(C(=O)c2ccccc2)c1 (configuration not stated) [Ketoprofen] fall at or above the 0.5 mark?
Resp: 1.0

Req: Does the reported growth for C[C@H](N[C@@H](CCc1ccccc1)C(=O)O)C(=O)N1CCC[C@H]1C(=O)O [Enalaprilat dihydrate] fall at or above the 0.5 mark?
Resp: 1.0

* * *

Tested on: E. coli TESEC Mtb DapB
Assay: growth (OD600 after 10 h); higher = more growth (less inhibition)
Details: arabinose induction (level): High; compound 0.1 mM; raw OD600 reference: median of DMSO wells […], cell-free background 0.041
Where a name gives a salt, the structure may show the parent alone.
Everything with growth lower than 0.2 is Not met; everything else, including exactly 0.2, is Met.

Answered examples (2):
1) NC(=O)N1c2ccccc2C=Cc2ccccc21 [Carbamazepine]: Not met
2) COc1ccc2c(c1)c(CC(=O)OCC(=O)O)c(C)n2C(=O)c1ccc(Cl)cc1: Not met

Req: Does the reported growth for CC1(C)O[C@@H]2C[C@H]3[C@@H]4C[C@H](F)C5=CC(=O)CC[C@]5(C)[C@H]4[C@@H](O)C[C@]3(C)[C@]2(C(=O)CO)O1 [Flurandrenolide] fall at or above the 0.2 mark?
Resp: Met

Req: Does the reported growth for Cc1cc(C)nc(NS(=O)(=O)c2ccc(N)cc2)n1 [Sulfamethazine sodium salt] fall at or above the 0.2 mark?
Resp: Not met

Req: Does the reported growth for CC1Cc2ccccc2N1NC(=O)c1ccc(Cl)c(S(N)(=O)=O)c1 (stereo not given) [Indapamide] fall at or above the 0.2 mark?
Resp: Met

Req: Does the reported growth for CCN(CC)CCNC(=O)c1cc(Cl)c(N)cc1OC [Metoclopramide monohydrochloride] fall at or above the 0.2 mark?
Resp: Not met

* * *

System: E. coli TESEC Mtb Alr
Assay: growth (OD600 after 10 h); higher = more growth (less inhibition)
Settings: arabinose 10000000 nM; compound 0.1 mM; raw OD600 reference: median of DMSO wells […], cell-free background 0.052
Structures can show the parent of a compound that is named as a salt.
Everything with growth lower than 0.3 is condition not met; everything else, including exactly 0.3, is condition met.

Answered examples (8):
1) CC1=C(CC(=O)O)c2cc(F)ccc2/C1=C\c1ccc([S+](C)[O-])cc1 (stereo not drawn): condition not met
2) CNC(=C[N+](=O)[O-])NCCSCc1ccc(CN(C)C)o1 [Ranitidine hydrochloride]: condition met
3) O=c1[nH]cnc2c1ncn2[C@H]1CC[C@@H](CO)O1: condition not met
4) COC(=O)Nc1nc2cc(C(=O)c3ccccc3)ccc2[nH]1: condition met
5) CCN(CC)Cc1cc(Nc2ccnc3cc(Cl)ccc23)ccc1O [Amodiaquin dihydrochloride dihydrate]: condition met
6) Cc1[nH]cnc1CN1CCc2c(c3ccccc3n2C)C1=O [Alosetron hydrochloride]: condition not met
7) CSc1ccc2c(c1)C(N1CCN(C)CC1)Cc1ccccc1S2 (stereo not drawn) [Methiothepin maleate]: condition not met
8) CNCC[C@@H](Oc1cccc2ccccc12)c1cccs1 [(R)-Duloxetine hydrochloride]: condition not met

Req: Does the reported growth for Cn1c(=O)c2c(ncn2CC(O)CO)n(C)c1=O (stereo not drawn) fall at or above the 0.3 mark?
Resp: condition met

Req: Does the reported growth for CC(=O)CC(c1ccccc1)c1c(O)c2ccccc2oc1=O (stereo not drawn) fall at or above the 0.3 mark?
Resp: condition met

Req: Does the reported growth for Cc1cc(C(C)(C)C)c(O)c(C)c1CC1=NCCN1 [Oxymetazoline hydrochloride] fall at or above the 0.3 mark?
Resp: condition met

Req: Does the reported growth for CC(C)N1CCN(c2ccc(OCC3COC(Cn4cncn4)(c4ccc(Cl)cc4Cl)O3)cc2)CC1 (stereo not drawn) fall at or above the 0.3 mark?
Resp: condition met

Req: Does the reported growth for CC(=O)N[C@@H](CC(=O)N[C@@H](CCC(=O)O)C(=O)O)C(=O)O fall at or above the 0.3 mark?
Resp: condition met

Req: Does the reported growth for Cc1c(Cl)cccc1Nc1ncccc1C(=O)O [Clonixin Lysinate] fall at or above the 0.3 mark?
Resp: condition not met

Req: Does the reported growth for CCOC(=O)c1ccc(OC(=O)CCCCCNC(=N)N)cc1 [Gabexate mesilate] fall at or above the 0.3 mark?
Resp: condition not met

Req: Does the reported growth for CC(=O)OCC(=O)[C@@]1(O)CC[C@H]2[C@@H]3CCC4=CC(=O)CC[C@]4(C)[C@H]3[C@@H](O)C[C@@]21C [Cortisol acetate] fall at or above the 0.3 mark?
Resp: condition not met

Req: Does the reported growth for O=C(O)c1cn(-c2ccc(F)cc2)c2cc(N3CCNCC3)c(F)cc2c1=O fall at or above the 0.3 mark?
Resp: condition not met

Req: Does the reported growth for Clc1ccc(C(c2ccccc2Cl)C(Cl)Cl)cc1 (stereo not drawn) fall at or above the 0.3 mark?
Resp: condition not met

Req: Does the reported growth for CC/C(=C(\c1ccccc1)c1ccc(OCCN(C)C)cc1)c1ccccc1 [Tamoxifen citrate] fall at or above the 0.3 mark?
Resp: condition not met
